- Organism: Rattus norvegicus
- experiment-description: Open TG-GATES - Regimen: Daily Repeat
- Assay type: toxicity, organism-based, Sprague-Dawley
- Set-up: regimen Daily Repeat, gender Male, age 6 weeks
- assay-setup: in vivo, po, 0 mg/kg, […], tissue Blood, route gavage, dose level Control, time 28 day
quantity-measured: Mono
Please don't drop the unit; write it after the number.

// known answers, use as guide
molecule	Mono
CCC1(c2ccccc2)C(=O)NC(=O)NC1=O [PHENOBARBITAL]	5.6%
CC[C@H]1[C@@H]2C[C@H]3[C@@H]4N(C)c5ccccc5[C@]45C[C@@H]([C@@H]2[C@H]5O)N3[C@@H]1O [AJMALINE]	5.6%
CN(C)C(=N)N=C(N)N [METFORMIN]	2.6%
O=NN(CCCl)C(=O)NC1CCCCC1 [LOMUSTINE]	5.4%
ClC(Cl)(Cl)Cl [CARBON TETRACHLORIDE]	2.6%
OCCOCCN1CCN(C(c2ccccc2)c2ccc(Cl)cc2)CC1 (stereo unspecified) [HYDROXYZINE]	2%
CC1=C(CC(=O)O)c2cc(F)ccc2/C1=C\c1ccc([S+](C)[O-])cc1 (stereo unspecified)	1.8%
CCc1oc2ccccc2c1C(=O)c1cc(Br)c(O)c(Br)c1 [BENZBROMARONE]	3.8%

CC(C)N(CCC(C(N)=O)(c1ccccc1)c1ccccn1)C(C)C (stereo unspecified) [DISOPYRAMIDE] has a reported Mono of 2.2%

CN(C)CCC=C1c2ccccc2COc2ccccc21 [DOXEPIN] has a reported Mono of 3%

CCCCc1oc2ccccc2c1C(=O)c1cc(I)c(OCCN(CC)CC)c(I)c1 [AMIODARONE] has a reported Mono of 2.4%
